PARTICULARS: buffer; pH 7.4; 200.0 µM
// reported log10(solubility kinetic) per item
Log10 applied to solubility kinetic; unit prior to transform: µg/mL.

Illustrative cases are given below, each with its answer.
COc1ccccc1NC(=O)c1ccc2c(c1)OCO2; 1.60
O=C1CC(c2cccs2)Cc2nc(NC(=O)C3CC3)ncc21 (centres undefined); 1.66
COc1cc2c(cc1OC)C(c1cccc(Br)c1)NC(=O)C2 (centres undefined); 1.63

Reported log10(solubility kinetic) for Nc1ccc2c(c1)C(=O)c1ccccc1-2 was 1.45

Reported log10(solubility kinetic) for COc1ccc2cc(CCl)c(Cl)nc2c1 was 1.28

Reported log10(solubility kinetic) for CC(=O)c1nc(-c2ccccc2)sc1C was 1.10

Reported log10(solubility kinetic) for CCOC(=O)Cn1c(=O)n(Cc2ccc(C)cc2)c(=O)c2cccnc21 was 0.15

Reported log10(solubility kinetic) for O=C(NC(=S)Nc1cccnc1)c1cccc(Br)c1 was 0.91

* * *

// reported solubility kinetic per item
PARTICULARS: buffer; pH 7.4; 200.0 µM
State the answer as a number, implicitly in µg/mL.

Cc1ccc(C(=O)N=c2sccn2C)o1; 32.9

Reported solubility kinetic for O=[N+]([O-])c1ccc2c(c1)c1ccccc1n2CCO was 6.2

Reported solubility kinetic for CC1(C(=O)Nc2nc3ccc(S(C)(=O)=O)cc3s2)CC1(Cl)Cl (centres undefined) was 52.1

Reported solubility kinetic for CC(C)(C)S(=O)(=O)/C(C#N)=C/c1sccc1C1OCCO1 was 35.4

Reported solubility kinetic for CC1c2ccsc2CCN1S(=O)(=O)c1cccs1 (centres undefined) was 23.5

* * *

PARTICULARS: buffer; pH 7.4; 200.0 µM
// reported solubility kinetic per item
State the answer as a number, implicitly in µg/mL.

Reported solubility kinetic for Nc1ncc(S(=O)(=O)c2ccc(Cl)cc2)c(N)n1 was 31.4

Reported solubility kinetic for CCNC(=S)/N=C(/Nc1ccccc1)Nc1nc(C)cc(C)n1 was 0.8

Reported solubility kinetic for CCOc1cc(/C=C\[N+](=O)[O-])ccc1OCC(=O)N1CCOCC1 was 24.5

Reported solubility kinetic for CCCCS(=O)(=O)N1CCC(C(=O)NCC2CCCO2)CC1 (stereo not drawn) was 46

Reported solubility kinetic for COc1cc2c(cc1OC)-c1cc(Nc3ccc(C)cc3)nc(=O)n1CC2 was 1.9

Reported solubility kinetic for Cc1ccc(CNC(=O)c2ccc(OCC(C)C)cc2)n1C was 27.6

Reported solubility kinetic for c1ccc2nc3ccccc3nc2c1 was 12.3

Reported solubility kinetic for COc1ccccc1N1CN(CCc2ccccc2)CNC1=S was 45.4

Reported solubility kinetic for CCOc1ccc(CNC(=O)CCc2cn(C)c3ccccc23)cc1 was 2.1

* * *

PARTICULARS: buffer; pH 7.4; 200.0 µM
Hi, to clarify the labels: true covers solubility kinetic from 0.02 mg/mL upward, false covers anything below 0.02 mg/mL.

Use these answered entries as a reference point.
CCSc1ncc(Cl)c(C(=O)Nc2ccccc2Cl)n1; false
NC(=O)C(c1ccccc1)c1ccc(C(=O)c2ccccc2)cc1 (configuration not stated); false
O=C(c1ccccc1)C1CCN(C(=O)c2cccs2)CC1; true
Oc1cc2c(cc1CN1CCN(c3ncccn3)CC1)OCO2; false
O=C(NC1CC2CCCC(C1)N2Cc1ccc(F)cc1)c1ccc(F)cc1 (configuration not stated); true
Cc1ccc(C)c(C(=O)CSc2nc(N)cc(=O)[nH]2)c1; false

Shift focus to the following entry.
[in] Evaluate Cc1ccc(OCCN2C(=O)C(=O)c3cc(C)ccc32)cc1 : solubility kinetic at minimum 0.02 mg/mL?
[out] false

* * *

PARTICULARS: buffer; pH 7.4; 200.0 µM
MEASURED_METRIC: solubility kinetic (µg/mL)
State the answer as a number, implicitly in µg/mL.

Illustrative cases are given below, each with its answer.
COc1cc(OC)c(C(=O)Nc2ccc(C(=O)c3ccccc3)cc2)cc1OC; 3.4
Cc1cc(=O)n2c(n1)NC(Nc1cccc(C)c1C)=NC2c1ccccc1 (configuration not stated); 1.7
N/C(=N\O)c1cn(Cc2ccccc2Cl)c2ccccc12; 39.4
Oc1c(CN2CCOCC2)ccc2ccccc12; 16.9
CCCc1cc(=O)[nH]c(SCC(=O)Nc2ccc(S(=O)(=O)N3CCCC3)cc2)n1; 29

Reported solubility kinetic for CC(C)Oc1cc(C(=O)NC2CCCCC2)c2ccccc2n1 was 1.4

Reported solubility kinetic for Cc1ccc(NC(=O)NCc2ccc3[nH]c(C)cc3c2)cc1 was 2.9

Reported solubility kinetic for Cc1ccc2cc3cc(C(=O)NC4CC4)oc3nc2c1 was 1.3

Reported solubility kinetic for CCOC(=O)c1[nH]cnc1C(=O)Nc1ccccc1 was 11.4

Reported solubility kinetic for COc1ccccc1CNC(=O)CCCc1cn(C)c2ccccc12 was 8.2

Reported solubility kinetic for COc1ccc(Nc2ncnc3sc(C)cc23)cc1.Cl was 14.8

* * *

PARTICULARS: buffer; pH 7.4; 200.0 µM
MEASURED_METRIC: solubility kinetic

Illustrative cases are given below, each with its answer.
CC(=O)N1CCN(CC(=O)Nc2ccccc2C(=O)Nc2ccccc2)CC1; > 57.1 µg/mL
NC(=O)c1cc(Cl)ccc1OCC(=O)NC1CC1; > 40.3 µg/mL
Clc1ccc(-c2nc(N3CCOCC3)nc3ccccc23)cc1; < 0.2 µg/mL

Lab note: next compound to report on.
Reported solubility kinetic for Cc1ccccc1NC(=O)NCc1ccccn1 was > 36.2 µg/mL

* * *

PARTICULARS: buffer; pH 7.4; 200.0 µM
// reported solubility kinetic per item

Illustrative cases are given below, each with its answer.
C=CCNC(=O)/C(C#N)=C/c1ccc(C(=O)O)cc1; > 38.4 µg/mL
CCOC(=O)Cn1nc(C)n(-c2ccc(F)cc2)c1=O; > 41.9 µg/mL
CCCC(CCC)C(=O)OC1C[C@H]2CC[C@@H](C1)[N+]2(C)C.[Br-] (some centres not stated); > 54.4 µg/mL

Reported solubility kinetic for O=C(O)CCn1c(O)c(C=C2N=c3ccccc3=N2)sc1=S was > 50 µg/mL

Reported solubility kinetic for Cc1cnc(C(=O)OCC(=O)Nc2cc(Cl)ccc2C#N)cn1 was > 49.6 µg/mL

Reported solubility kinetic for O=C(O)Cn1c(-c2ccccn2)nc2ccccc21 was > 38 µg/mL

Reported solubility kinetic for CCOc1ccccc1NC(=O)Nc1ccccn1 was < 0.2 µg/mL

* * *

PARTICULARS: buffer; pH 7.4; 200.0 µM
MEASURED_METRIC: solubility kinetic

Illustrative cases are given below, each with its answer.
CCSc1ncc(Cl)c(C(=O)Nc2cc(C)ccc2C)n1; < 0.2 µg/mL
O=C(NCc1ccccn1)C(=O)NCC(c1ccco1)N1CCOCC1 (stereo not given); > 53.8 µg/mL
CC(=O)Nc1ccc(-c2cc(C(=O)O)c3ccc(C)cc3n2)cc1; > 48.1 µg/mL
COc1ccccc1C(=O)NCCC(=O)N(C)Cc1ccc(C)o1; > 49.6 µg/mL
COc1cc(OC)c(C2C(C#N)=C(C)NC(C)=C2C#N)c(C(=O)O)c1; > 50.9 µg/mL

Lab note: next molecule to report on.
Reported solubility kinetic for Cl.c1ccc(C2NCCc3ccccc32)cc1 (stereo not given) was > 36.9 µg/mL

* * *

PARTICULARS: buffer; pH 7.4; 200.0 µM
MEASURED_METRIC: solubility kinetic

CC(NCCC(c1ccccc1)c1ccccc1)c1ccccc1.Cl (configuration not stated); > 52.8 µg/mL
O=C(CSc1nnc(-c2ccccc2)o1)NC1CC1; > 41.3 µg/mL
Cc1ccc2cc3c(nc2c1)OCC3; > 27.8 µg/mL
COCCNC(=O)COc1cccc2c1OC(C)(C)C2; > 41.9 µg/mL
O=c1oc(-c2ccc(Br)cc2)nc2ccccc12; < 0.6 µg/mL

Reported solubility kinetic for O=C(Cc1ccc(Br)cc1)OCC(=O)N1CCCCCC1 was > 53.1 µg/mL

Reported solubility kinetic for CCCC(=O)Nc1ccc2c(c1)nc(CCN1CCCCC1)n2C was > 49.3 µg/mL

Reported solubility kinetic for CC(=O)Nc1ccc(OCC(=O)NCCc2ccccc2)cc1 was > 46.9 µg/mL

Reported solubility kinetic for CCCn1c(C)c(C(=O)OCC)c(O)c(-c2ccccc2)c1=O was > 47.3 µg/mL

Reported solubility kinetic for CCn1c(OC)nc2c1c(=O)n(C)c(=O)n2C was > 35.7 µg/mL

* * *

PARTICULARS: buffer; pH 7.4; 200.0 µM
// reported solubility kinetic per item

Illustrative cases are given below, each with its answer.
COc1cc(/C=C/C(=O)OCC(=O)NC2CC2)cc(OC)c1OC; > 50.3 µg/mL
COc1ccccc1-c1noc(CCC(=O)NC2CCCC2)n1; > 47.3 µg/mL
Cc1ccc2cc(C#N)c(N3CCN(C(=O)c4cccs4)CC3)nc2c1; < 0.2 µg/mL
Cc1[nH]n(-c2ccccc2)c(=O)c1C=NCC1CCCO1 (stereo unspecified); > 42.8 µg/mL
O=C(Nc1ccc(Cl)c([N+](=O)[O-])c1)c1ccc2c(c1)OCCO2; < 0.4 µg/mL

Reported solubility kinetic for CCN(CC)C(=O)COc1c(-c2ccco2)oc2ccccc2c1=O was > 51.2 µg/mL

Reported solubility kinetic for Nc1nc(SC23CC4CC(CC(C4)C2)C3)ns1 was < 0.2 µg/mL
